Tested on: Huh7.5 cells
Assay: Cell viability, CellTiter-Glo luminescent assay
Conditions: read-out: CC50 Huh 7.5; uninfected Huh7.5, 2 days, CellTiter-Glo
REPORTED_ENDPOINT: CC50 (µM)

1. CC(=O)c1ccc2cn[nH]c2c1; 177

* * *

Test system: DENV-R2A (Rluc-expressing DENV, serotype 2 strain 16681)
Assay: microbe, parasite or virus in culture
Type: cell-based, Dengue virus
Settings: Dengue virus, Huh7.5, 48 h, read-out: DENV-R2A replication (fold DMSO) Mean, deconvolution screen, singletons, 50 µM, Huh7.5, 2 days postinfection
# activity at 50 µM per record follows
REPORTED_ENDPOINT: activity at 50 µM (%)

1. N#CCOc1cccc2ccccc12; 65
2. CN1C(=O)Cc2ccccc2C1=O [Compound 10L-733, CN1C(=O)Cc2ccccc2C1=O]; 101
3. C[C@@H](O)c1cccc(C(F)(F)F)c1 [PS-6325, C[C@@H](O)c1cccc(c1)C(F)(F)F]; 103
4. O=C(C1CCNCC1)N1CCCC1; 97
5. Cc1onc(-c2ccccc2)c1C#N [Compound 10B-058, Cc1onc(c2ccccc2)c1C#N]; 102
6. Cc1ccnc2ccccc12; 101
7. Cc1onc(-c2ccccc2)c1N; 88
8. Brc1cnc(N2CCCC2)nc1; 105
9. Nc1cccc(Cl)c1; 111

* * *

# Cell viability (fold DMSO) Mean per record follows
System: Huh7.5 cells
Experiment: Cell viability, CellTiter-Glo luminescent assay
Conditions: deconvolution screen, singletons, 50 µM, uninfected Huh7.5
REPORTED_ENDPOINT: Cell viability (fold DMSO) Mean

1. Cc1ccc(Br)c(N)c1; 1.16
2. CC(=O)c1ccc2cn[nH]c2c1; 0.80
3. Cc1ccnn1-c1ccccc1; 1.07
4. Clc1ccc2nccnc2c1; 1.20
5. CN1C(=O)Cc2ccccc2C1=O [Compound 10L-733, CN1C(=O)Cc2ccccc2C1=O]; 0.94
6. Nc1ccc(Cl)nn1; 1.18
7. Cc1cc(O)nc2ccc(O)cc12; 1.00
8. OCc1cc2c(cc1Br)OCO2 [Compound 10P-113, OCc1cc2OCOc2cc1Br]; 0.88
9. O=C(O)c1ccc(N2CCCCC2)nn1; 1.01
10. Cc1ncccc1C(=O)O; 0.92
11. c1ccn(-c2cnccn2)c1; 0.93
12. Nc1cccnc1Cl; 1.10
13. Cc1cc(C)n2ccnc2c1; 1.21
14. Fc1cc(F)cc(-c2ccno2)c1; 1.15
15. Nc1cnccc1Cl; 1.04
16. O=C(O)Cc1ccc(O)cc1; 0.98
17. N#CCOc1cccc2ccccc12; 1.01
18. Cc1ccnc2ccccc12; 0.92
19. OCc1cccc(CO)n1; 0.90
20. N#Cc1cccc(O)c1; 1.16
21. Clc1ncc(CN2CCCCC2)s1; 0.95

* * *

Assay: Cell viability, CellTiter-Glo luminescent assay
Conditions: human, CC50 Huh 7.5, uninfected Huh7.5, 2 days, CellTiter-Glo
REPORTED_ENDPOINT: CC50 at 48 h

1) CC(=O)c1ccc2cn[nH]c2c1 [Compound 6A1HI, 6-acetyl-1H-indazole]; > 150 µM

* * *

# DENV-R2A replication (Fold DMSO) per record follows
System: DENV-R2A (Rluc-expressing DENV, serotype 2 strain 16681)
Assay: microbe, parasite or virus in culture
Format: cell-based, Dengue virus
Details: Table S3, NPP3C analogues, 50 µM, Huh7.5, 2 days postinfection
REPORTED_ENDPOINT: DENV-R2A replication (Fold DMSO)

1) N#CC(Cc1cccnc1)C(=O)Nc1ccccc1 (centres unmarked); 1.79
2) O=C(Nc1ccncc1)c1ccccc1; 1.05
3) O=C(Nc1ccccc1)c1ccc(C(F)(F)F)nc1; 0.71
4) O=C(NNC(=O)c1ccncc1)Nc1ccccc1; 1.32
5) O=C(c1ccccc1)c1cccnc1; 1.14
6) Nc1ccc(C(=O)Nc2ccccc2)cc1; 0.98
7) Nc1cccc(-c2cccnc2)c1; 1.04
8) O=C(NC1CC1)c1ccc(C(F)(F)F)nc1; 1.24

* * *

System: Huh7.5 cells
Assay: Cell viability, CellTiter-Glo luminescent assay
Conditions: deconvolution screen, singletons, 50 µM, uninfected Huh7.5
Label Condition met when Cell viability (fold DMSO) Mean < 1 fold DMSO; otherwise Condition not met.

1) Cc1onc(-c2ccccc2)c1CN; Condition met
2) O=C(c1ccccc1)C1(O)CCCCC1; Condition not met
3) NC(=O)c1ccco1; Condition not met
4) CC1(C)CC(O)CC(C)(C)N1; Condition not met
5) O=C(C1CCNCC1)N1CCCC1; Condition met
6) Oc1ccc2ncccc2c1; Condition not met
7) OCC1CN(Cc2ccccc2)CCO1 (centres unmarked); Condition not met
8) Nc1cnc(Cl)cn1; Condition not met
9) Nc1cccc(Cl)c1Cl; Condition met
10) CC(=O)Nc1ccc(OC(F)F)cc1; Condition not met
11) NC(=O)NCc1cccc(Cl)c1; Condition not met
12) Nc1oncc1-c1ccc(Cl)cc1; Condition met
13) Oc1ccc2[nH]ccc2c1 [PS-3277, Oc1ccc2[nH]ccc2c1]; Condition not met
14) CC(=O)Nc1cc(C)ccc1F; Condition not met
15) O=C(O)[C@@H](O)c1ccc(Br)cc1 [SS-4660, O[C@H](C(=O)O)c1ccc(Br)cc1]; Condition not met
16) Cc1ccc(N2CCNC2=O)c(C)c1; Condition not met

* * *

Test system: DENV-R2A (Rluc-expressing DENV, serotype 2 strain 16681)
Assay: microbe, parasite or virus in culture
Type: cell-based, Dengue virus
Settings: Dengue virus, Huh7.5, 48 h, read-out: DENV-R2A replication (fold DMSO) Mean, deconvolution screen, singletons, 50 µM, Huh7.5, 2 days postinfection
REPORTED_ENDPOINT: activity at 50 µM (%)

1) O=C(O)c1ccc(N2CCCCC2)nn1; 107
2) NC(=O)c1ccco1; 98
3) Cc1ccc(C2CNCCN2)cc1 (centres unmarked); 74
4) O=C1CCc2ccccc21; 103
5) Clc1ccc(N2CCNCC2)nc1; 76
6) Clc1[nH]ccc2nccc1-2 [PS-4776, Clc1[nH]ccc2nccc12]; 84
7) CC(=O)Nc1ccc(OC(F)F)cc1; 105
8) N[C@@H]1c2ccccc2C[C@@H]1O [PS-4272, N[C@H]1[C@@H](O)Cc2ccccc12]; 93
9) O=C1CCNc2c(F)cccc21; 87
10) Nc1ccc(Cl)cc1Br; 94
11) CNC(=O)c1cc(Br)c[nH]1 [Compound 10Y-0822, CNC(=O)c1cc(Br)c[nH]1]; 75
12) CNC(=O)Nc1ccc(F)c(C)c1; 96
13) COc1ccc(CO)c(OC)c1; 31
14) CCNC(=O)N1CCC(O)CC1; 103
15) Nc1cnc(Cl)cn1; 97
16) OCC1CN(Cc2ccccc2)CCO1 (centres unmarked); 100
17) Cc1ncccc1C(=O)O; 102
18) COc1ccccc1N1CCNC(C)C1 (centres unmarked); 82
19) Fc1cc(F)cc(-c2ccno2)c1; 100
20) Clc1ccc2nncn2c1; 94

* * *

Test system: DENV-R2A (Rluc-expressing DENV, serotype 2 strain 16681)
Experiment: microbe, parasite or virus in culture
Assay type: cell-based, Dengue virus
Details: Dengue virus, Huh7.5, 48 h, read-out: DENV-R2A replication (fold DMSO) Mean, deconvolution screen, singletons, 50 µM, Huh7.5, 2 days postinfection
REPORTED_ENDPOINT: activity at 50 µM (%)

1) Clc1ccc2nccnc2c1; 95
2) Oc1ccc2ncccc2c1; 93
3) COC(=O)c1cc(Br)no1; 98
4) CC1(C)CN2C(=O)c3ccccc3C2S1 (stereo not drawn) [Compound 12R-0242, CC1(C)CN2C(S1)c3ccccc3C2=O]; 62
5) CN(C)C(=O)c1ccccc1Br; 107
6) Cc1onc(-c2ccccc2)c1CN; 91
7) Clc1ncc(Cn2ccnc2)s1; 104
8) OC[C@@H]1Cc2ccccc2CN1 [PS-6029, OC[C@@H]1Cc2ccccc2CN1]; 99
9) Cc1cc(O)nc2ccc(O)cc12; 92
10) CC(N)c1cccnc1 (stereo not shown); 100

* * *

Tested on: Huh7.5 cells
Assay: Cell viability, CellTiter-Glo luminescent assay
Conditions: deconvolution screen, singletons, 50 µM, uninfected Huh7.5
REPORTED_ENDPOINT: Cell viability (fold DMSO) Mean

1. Clc1cccn2nnnc12 [PS-5645, Clc1cccn2nnnc12]; 0.92
2. COc1ccc(CO)c(OC)c1 [PS-4550, COc1ccc(CO)c(OC)c1]; 0.92
3. CN1CCN(c2ccccc2CN)CC1 [PS-3674, CN1CCN(CC1)c2ccccc2CN]; 0.94
4. Nc1ccccc1N1CCCCC1 [PS-4134, Nc1ccccc1N2CCCCC2]; 1.12
5. OCC1(c2ccc(Cl)cc2)CC1 [RS-1014, OCC1(CC1)c2ccc(Cl)cc2]; 1.07
6. O=C1CCNc2c(F)cccc21 [PS-6636, Fc1cccc2C(=O)CCNc12]; 1.14
7. OCc1c[nH]c(-c2ccccc2)n1 [CB-0713, OCc1c[nH]c(n1)c2ccccc2]; 1.02
8. CC1CCN(Cc2ccc(Cl)nc2)CC1 [Compound 2X-0836, CC1CCN(Cc2ccc(Cl)nc2)CC1]; 1.16
9. Clc1ncc(Cn2ccnc2)s1 [Compound 8P-013, Clc1ncc(Cn2ccnc2)s1]; 0.94
